Experiment summary: Cmax in mouse blood at 50 mg/kg, sc
Type: ADME, organism-based
Design: dose 50 mg/kg, route subcutaneous

{"Mol smiles": "C[C@H]1[C@@H](c2cccc(C(F)(F)F)c2)OC(=O)N1C(=O)NCc1cncc2ccccc12", "Cmax, µM": 4.9}

###

Experiment summary: AUC (0 to x) in mouse kidney at 50 mg/kg, sc
Assay type: ADME, organism-based

{"Mol smiles": "C[C@H]1[C@@H](c2cccc(C(F)(F)F)c2)OC(=O)N1C(=O)NCc1cncc2ccccc12", "Unit of measure": "µM·h", "AUC": 336}

###

Each entry below lists one item and its recorded IC50 value.
Experiment summary: Inhibition of methicillin-resistant Staphylococcus aureus COL TarO assessed as suppression of bacteriophage K-mediated cell lysis
Design: species or system Staphylococcus aureus subsp. aureus COL
Observable: IC50 (nM)

{"Mol smiles": "COc1cc(C(F)(F)F)cc([C@H]2OC(=O)N(C(=O)NCc3cncc4cccnc34)[C@H]2C)n1", "Observable": "IC50", "Recorded value": 600}
{"Mol smiles": "C[C@H]1[C@@H](c2cc(C(F)(F)F)cc(C(F)(F)F)c2)OC(=O)N1C(=O)NCc1cncc2ccccc12", "Observable": "IC50", "Recorded value": 94}
{"Mol smiles": "O=C(NCc1cncc2ccccc12)N1C(=O)O[C@H](c2cc(C(F)(F)F)cc(C(F)(F)F)c2)[C@@H]1CO", "Observable": "IC50", "Recorded value": 1260}

###

Experiment summary: AUC (0 to 24 hrs) in mouse at 100 mg/kg, po
Format: ADME, organism-based
Parameters: time < 24 hr, dose 100 mg/kg, route oral
Experimental setup: in vivo

{"Mol smiles": "C[C@H]1[C@@H](c2cc(C(F)(F)F)cc(C(F)(F)F)c2)OC(=O)N1C(=O)CCc1cncc2ccccc12", "AUC(0-t) at 24 h": "1.7 µM·h"}

###

Experiment summary: Terminal half life in mouse at 2 mg/kg, iv
Format: ADME, organism-based
Experimental setup: in vivo, read-out: beta t1/2 (converted)

{"Mol smiles": "C[C@H]1[C@@H](c2cccc(C(F)(F)F)c2)OC(=O)N1C(=O)NCc1cncc2ccccc12", "Unit of measure": "h", "half-life": 6.4}

###

Experiment summary: Clearance in mouse at 2 mg/kg, iv
Format: ADME, organism-based
Experimental setup: in vivo

{"Mol smiles": "C[C@H]1[C@@H](c2cccc(C(F)(F)F)c2)OC(=O)N1C(=O)NCc1cncc2ccccc12", "clearance": "61 to 61.4 mL/min/kg"}

###

Experiment summary: Cmax in mouse liver at 50 mg/kg, sc
Type: ADME, organism-based
Design: dose 50 mg/kg, route subcutaneous

{"Mol smiles": "C[C@H]1[C@@H](c2cccc(C(F)(F)F)c2)OC(=O)N1C(=O)NCc1cncc2ccccc12", "Unit of measure": "µM", "Cmax": 101}

###

Experiment summary: Terminal half life in rat at 1 mg/kg, iv
Type: ADME, organism-based
Experimental setup: in vivo, read-out: beta t1/2 (converted)
Observable: half-life (min)

{"Mol smiles": "C[C@H]1[C@@H](c2cccc(C(F)(F)F)c2)OC(=O)N1C(=O)NCc1cncc2ccccc12", "Recorded value": 102}
{"Mol smiles": "COc1cc(C(F)(F)F)cc([C@H]2OC(=O)N(C(=O)NCc3cncc4cccnc34)[C@H]2CO)n1", "Recorded value": 28.8}

###

Experiment summary: Volume of distribution at steady state in rat at 1 mg/kg, iv
Format: ADME, organism-based
Experimental setup: in vivo, read-out: Vdss
Observable: Vd (L/kg)

{"Mol smiles": "COc1cc(C(F)(F)F)cc([C@H]2OC(=O)N(C(=O)NCc3cncc4cccnc34)[C@H]2CO)n1", "Recorded value": 1.2}
{"Mol smiles": "C[C@H]1[C@@H](c2cccc(C(F)(F)F)c2)OC(=O)N1C(=O)NCc1cncc2ccccc12", "Recorded value": 6.6}

###

Experiment summary: AUC (0 to x) in mouse liver at 50 mg/kg, sc
Assay type: ADME, organism-based

{"Mol smiles": "C[C@H]1[C@@H](c2cccc(C(F)(F)F)c2)OC(=O)N1C(=O)NCc1cncc2ccccc12", "AUC": "322 µM·h"}

###

Tested on: Staphylococcus aureus subsp. aureus COL
Experiment summary: Inhibition of methicillin-resistant Staphylococcus aureus COL TarO assessed as compound concentration required for potentiation of imipenem-mediated bacterial growth inhibition by 95% after 20 hrs
Each entry below lists one item and its recorded MITC95 value.
Observable: MITC95 (nM)

{"Mol smiles": "C[C@H]1[C@@H](c2cc(C(F)(F)F)cc(C(F)(F)F)c2)OC(=O)N1C(=O)CCc1cccc2ccccc12", "Unit of measure": "nM", "Qualifier": "=", "Recorded value": 15}
{"Mol smiles": "O=C(O)C[C@H]1[C@@H](c2cc(F)cc(C(F)(F)F)c2)OC(=O)N1C(=O)NCc1cncc2ccccc12", "Unit of measure": "nM", "Qualifier": ">", "Recorded value": 200000}
{"Mol smiles": "C[C@H]1[C@@H](c2cc(C(F)(F)F)cc(C(F)(F)F)c2)OC(=O)N1C(=O)NCc1cncc2cccnc12", "Unit of measure": "nM", "Qualifier": "=", "Recorded value": 125}
{"Mol smiles": "C[C@H]1[C@@H](c2cccc(C(F)(F)F)c2)OC(=O)N1C(=O)NCc1cncc2cccnc12", "Unit of measure": "nM", "Qualifier": "=", "Recorded value": 970}

###

Experiment summary: Clearance in rat at 1 mg/kg, iv
Assay type: ADME, organism-based
Experimental setup: in vivo
Observable: clearance (mL/min/kg)

{"Mol smiles": "COc1cc(C(F)(F)F)cc([C@H]2OC(=O)N(C(=O)NCc3cncc4cccnc34)[C@H]2CO)n1", "Observable": "clearance", "Recorded value": 36.8}

###

Each entry below lists one item and its recorded AUC(0-inf) value.
Experiment summary: AUC (0 to infinity) in rat at 1 mg/kg, iv
Assay type: ADME, organism-based
Design: dose 1 mg/kg, time infinity, route intravenous
Experimental setup: in vivo
Observable: AUC(0-inf) (µM·h)

{"Mol smiles": "C[C@H]1[C@@H](c2cccc(C(F)(F)F)c2)OC(=O)N1C(=O)NCc1cncc2ccccc12", "Observable": "AUC(0-inf)", "Recorded value": 0.42}
{"Mol smiles": "COc1cc(C(F)(F)F)cc([C@H]2OC(=O)N(C(=O)NCc3cncc4cccnc34)[C@H]2CO)n1", "Observable": "AUC(0-inf)", "Recorded value": 0.95}

###

Experiment summary: AUC (0 to x) in mouse lung at 50 mg/kg, sc
Format: ADME, organism-based

{"Mol smiles": "C[C@H]1[C@@H](c2cccc(C(F)(F)F)c2)OC(=O)N1C(=O)NCc1cncc2ccccc12", "AUC": "123 µM·h"}

###

Experiment summary: AUC (0 to infinity) in mouse at 2 mg/kg, iv
Type: ADME, organism-based
Set-up: dose 2 mg/kg, time infinity, route intravenous
Experimental setup: in vivo
Observable: AUC(0-inf) (µM·h)

{"Mol smiles": "C[C@H]1[C@@H](c2cccc(C(F)(F)F)c2)OC(=O)N1C(=O)NCc1cncc2ccccc12", "Observable": "AUC(0-inf)", "Recorded value": 1.26}

###

Experiment summary: Tmax in mouse liver at 50 mg/kg, sc
Assay type: ADME, organism-based
Observable: Tmax (h)

{"Mol smiles": "C[C@H]1[C@@H](c2cccc(C(F)(F)F)c2)OC(=O)N1C(=O)NCc1cncc2ccccc12", "Unit of measure": "h", "Recorded value": 1}

###

Experiment summary: Tmax in mouse blood at 50 mg/kg, sc
Type: ADME, organism-based
Observable: Tmax (min)

{"Mol smiles": "C[C@H]1[C@@H](c2cccc(C(F)(F)F)c2)OC(=O)N1C(=O)NCc1cncc2ccccc12", "Unit of measure": "min", "Recorded value": 30}

###

Experiment summary: Tmax in mouse lung at 50 mg/kg, sc
Format: ADME, organism-based
Observable: Tmax (min)

{"Mol smiles": "C[C@H]1[C@@H](c2cccc(C(F)(F)F)c2)OC(=O)N1C(=O)NCc1cncc2ccccc12", "Recorded value": 42}

###

Tested on: Staphylococcus aureus subsp. aureus COL
Experiment summary: Inhibition of methicillin-resistant Staphylococcus aureus COL TarO assessed as compound concentration required for potentiation of imipenem-mediated bacterial growth inhibition by 95% after 20 hrs
Each entry below lists one item and its recorded MITC95 value.

{"Mol smiles": "C[C@H]1[C@@H](c2cc(F)cc(C(F)(F)F)c2)OC(=O)N1C(=O)NCc1cncc2ccccc12", "Unit of measure": "nM", "Qualifier": "=", "MITC95": 125}
{"Mol smiles": "C[C@H]1[C@@H](c2cc(C(F)(F)F)cc(C(F)(F)F)c2)OC(=O)N1C(=O)Cc1cccc2ccccc12", "Unit of measure": "nM", "Qualifier": "=", "MITC95": 900}
{"Mol smiles": "O=C(NCc1cncc2ccccc12)N1C(=O)O[C@H](c2cc(F)cc(C(F)(F)F)c2)[C@@H]1CCO", "Unit of measure": "nM", "Qualifier": "=", "MITC95": 18000}
{"Mol smiles": "C[C@H]1[C@@H](c2cc(C(F)(F)F)cc(C(F)(F)F)c2)OC(=O)N1C(=O)NCc1cncc2ccccc12", "Unit of measure": "nM", "Qualifier": "=", "MITC95": 31}
{"Mol smiles": "C[C@H]1[C@@H](c2cc(C(F)(F)F)cc(C(F)(F)F)c2)OC(=O)N1C(=O)CCCc1cccc2ccccc12", "Unit of measure": "nM", "Qualifier": "=", "MITC95": 125}
{"Mol smiles": "C[C@H]1[C@@H](c2cc(C(F)(F)F)ccn2)OC(=O)N1C(=O)NCc1cncc2ccccc12", "Unit of measure": "nM", "Qualifier": "=", "MITC95": 6250}
{"Mol smiles": "C[C@H]1[C@@H](c2cccc(C(F)(F)F)c2)OC(=O)N1C(=O)NCc1cncc2ccccc12", "Unit of measure": "nM", "Qualifier": "=", "MITC95": 250}
{"Mol smiles": "O=C(O)[C@H]1[C@@H](c2cccc(C(F)(F)F)c2)OC(=O)N1C(=O)NCc1cncc2ccccc12", "Unit of measure": "nM", "Qualifier": ">", "MITC95": 200000}
{"Mol smiles": "C[C@H]1[C@@H](c2cc(C(F)(F)F)cc(C(F)(F)F)c2)OC(=O)N1C(=O)CCc1cncc2ccccc12", "Unit of measure": "nM", "Qualifier": "=", "MITC95": 23}
{"Mol smiles": "COc1cc(C(F)(F)F)cc([C@H]2OC(=O)N(C(=O)NCc3cncc4ccccc34)[C@H]2CO)n1", "Unit of measure": "nM", "Qualifier": "=", "MITC95": 360}
{"Mol smiles": "COc1cc(C(F)(F)F)cc([C@H]2OC(=O)N(C(=O)NCc3cncc4cccnc34)[C@H]2C)n1", "Unit of measure": "nM", "Qualifier": "=", "MITC95": 375}
{"Mol smiles": "C[C@H]1[C@@H](c2ccccn2)OC(=O)N1C(=O)NCCc1cccc2ccccc12", "Unit of measure": "nM", "Qualifier": ">", "MITC95": 200000}
{"Mol smiles": "O=C(NCc1cncc2ccccc12)N1C(=O)O[C@H](c2cc(F)cc(C(F)(F)F)c2)[C@@H]1CO", "Unit of measure": "nM", "Qualifier": "=", "MITC95": 320}
{"Mol smiles": "O=C(NCc1cncc2ccccc12)N1C(=O)O[C@H](c2cc(C(F)(F)F)cc(C(F)(F)F)c2)[C@@H]1CO", "Unit of measure": "nM", "Qualifier": "=", "MITC95": 220}
{"Mol smiles": "C[C@H]1[C@@H](c2cc(C(F)(F)F)cc(C(F)(F)F)c2)OC(=O)N1CCC(=O)N1CCOc2ccccc21", "Unit of measure": "nM", "Qualifier": ">", "MITC95": 200000}
{"Mol smiles": "O=C(NCc1cncc2ccccc12)N1C(=O)O[C@H](c2cccc(C(F)(F)F)c2)[C@@H]1CO", "Unit of measure": "nM", "Qualifier": "=", "MITC95": 650}
{"Mol smiles": "C[C@H]1[C@@H](c2cc(C(F)(F)F)cc(C(F)(F)F)c2)OC(=O)N1CC(=O)Nc1cncc2ccccc12", "Unit of measure": "nM", "Qualifier": ">", "MITC95": 200000}
{"Mol smiles": "O=C(NCc1cncc2cccnc12)N1C(=O)O[C@H](c2cc(C(F)(F)F)cc(C(F)(F)F)c2)[C@@H]1CO", "Unit of measure": "nM", "Qualifier": "=", "MITC95": 390}
{"Mol smiles": "COc1cc(C(F)(F)F)cc([C@H]2OC(=O)N(C(=O)NCc3cncc4cccnc34)[C@H]2CO)n1", "Unit of measure": "nM", "Qualifier": "=", "MITC95": 900}
